# TARGET_ENTITY: Lck (Homo sapiens (Human), UniProt P06239)
# Sequence (P06239 whole entry): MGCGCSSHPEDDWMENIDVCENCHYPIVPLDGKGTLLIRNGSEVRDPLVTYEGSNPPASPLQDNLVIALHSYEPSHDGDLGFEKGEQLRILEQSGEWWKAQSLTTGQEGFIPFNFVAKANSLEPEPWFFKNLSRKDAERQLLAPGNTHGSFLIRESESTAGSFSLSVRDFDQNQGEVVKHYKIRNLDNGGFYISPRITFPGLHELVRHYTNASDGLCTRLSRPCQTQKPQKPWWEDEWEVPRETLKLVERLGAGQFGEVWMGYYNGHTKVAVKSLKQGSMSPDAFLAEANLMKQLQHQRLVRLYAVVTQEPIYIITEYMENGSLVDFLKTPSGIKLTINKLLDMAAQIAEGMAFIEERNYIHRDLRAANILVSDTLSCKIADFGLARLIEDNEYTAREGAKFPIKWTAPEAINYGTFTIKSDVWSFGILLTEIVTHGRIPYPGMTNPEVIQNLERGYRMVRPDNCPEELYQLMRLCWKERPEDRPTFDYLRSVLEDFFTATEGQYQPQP
# ASSAY_METHOD_TEXT: KinaseProfiler off-target kinase profiling
# Assay type: biochemical
# TEST_SETTINGS: 10 μM, ATP near Km
METRIC: Avg. POC (POC)

MOLECULE	METRIC	READOUT_NUMBER
Cc1c(-c2cnn(C)c2)nn(-c2ccccc2)c1NC(=O)NC1CCOc2cc(F)ccc21 (stereo not shown) [Example 12]	Avg. POC	92
Cc1c(-c2ccc(=O)n(C)c2)nn(-c2ccccc2)c1NC(=O)NC1CN(CC(F)(F)F)Cc2ccccc21 (stereo not shown) [Example 26]	Avg. POC	96.5
Cc1c(-c2cnn(C)c2)nn(-c2ccccc2)c1NC(=O)N[C@H]1CCCc2ccccc21 [Example 2]	Avg. POC	97.5
COCc1ccc2c(c1)C(NC(=O)Nc1c(C)c(-c3cnn(C)c3)nn1-c1ccccc1)COC2 (stereo not shown) [Example 32]	Avg. POC	104.5
